Collected IC50 values appear next to each entry.
assay system: Recombinant human renin (Homo sapiens, UniProt P00797)
Construct: isolate the active form (residues 67-406); made in house; host or cells: FreeStyle 293-F cells, transient expression of pcDNA3.1(+)/hREN
protocol details: In vitro enzymatic activity assay of renin inhibitors (fluorescence, QXL520/HiLyteFluo488 peptide substrate)
Assay type: biochemical
stated conditions: recombinant human renin 3 nM, 1 μM substrate, pre-incubated 10 minutes at 37° C., incubation one hour, pH 7.4, 5% DMSO; read-out: IC50 of Exemplified Compounds Against Renin

Past entries and their recorded results:
O=C(c1[nH]c(=O)n(C2CCCCC2)c1-c1ccccc1)N1CCCNCC1	> 1000 nM
CCOC(=O)NCCn1c(C(=O)N2CCNCC2)c(-c2ccccc2)n(-c2ccccc2C)c1=O	> 1000 nM
Cc1ccccc1-n1c(-c2ccccc2)c(C(=O)N2CCNCC2)n(CCCNC(=O)OCc2ccccc2)c1=O	> 1000 nM

# evaluate next
Q) Item under review: COc1cccc(Cn2c(C(=O)N3CCNCC3)c(-c3ccccc3)n(-c3ccccc3C)c2=O)c1 . Reported IC50?
A) 100 to 500 nM

---

assay system: Recombinant human renin (Homo sapiens, UniProt P00797)
Construct: isolate the active form (residues 67-406); made in house; host or cells: FreeStyle 293-F cells, transient expression of pcDNA3.1(+)/hREN
Sequence (P00797 67-406): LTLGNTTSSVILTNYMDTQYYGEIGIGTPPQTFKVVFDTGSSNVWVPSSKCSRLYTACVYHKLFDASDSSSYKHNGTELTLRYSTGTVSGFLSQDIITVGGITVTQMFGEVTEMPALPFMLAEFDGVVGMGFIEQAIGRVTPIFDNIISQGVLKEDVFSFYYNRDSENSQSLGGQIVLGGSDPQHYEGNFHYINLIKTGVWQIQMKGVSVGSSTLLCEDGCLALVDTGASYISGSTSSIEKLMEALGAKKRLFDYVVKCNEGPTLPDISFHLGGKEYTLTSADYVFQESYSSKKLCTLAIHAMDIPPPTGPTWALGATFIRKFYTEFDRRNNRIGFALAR
protocol details: In vitro enzymatic activity assay of renin inhibitors (fluorescence, QXL520/HiLyteFluo488 peptide substrate)
Format: biochemical
stated conditions: recombinant human renin 3 nM, 1 μM substrate, pre-incubated 10 minutes at 37° C., incubation one hour, pH 7.4, 5% DMSO; read-out: IC50 of Exemplified Compounds Against Renin
pIC50: −log10 of the molar value.
readout: pIC50

Past entries and their recorded results:
O=C(NCCCn1c(C(=O)N2CCNCC2)c(-c2ccccc2)n(-c2cccc(N3CCOCC3)c2)c1=O)c1ccccc1 [Example 174]	< 6.00
Cc1ccccc1-n1c(-c2ccccc2)c(C(=O)N2CCNCC2)n(CC2CCCCC2)c1=O [Example 163]	< 6.00

Q) Item under review: Cc1ccccc1-n1c(-c2ccccc2)c(C(=O)N2CCNCC2)n(Cc2cccc(OCCOc3ccccc3)c2)c1=O [Example 149] . Reported pIC50?
A) 6.30 to 7.00

---

Collected IC50 values appear next to each entry.
assay system: Recombinant human renin (Homo sapiens)
Construct: isolate the active form (residues 67-406); made in house; host or cells: FreeStyle 293-F cells, transient expression of pcDNA3.1(+)/hREN
Sequence (P00797 67-406): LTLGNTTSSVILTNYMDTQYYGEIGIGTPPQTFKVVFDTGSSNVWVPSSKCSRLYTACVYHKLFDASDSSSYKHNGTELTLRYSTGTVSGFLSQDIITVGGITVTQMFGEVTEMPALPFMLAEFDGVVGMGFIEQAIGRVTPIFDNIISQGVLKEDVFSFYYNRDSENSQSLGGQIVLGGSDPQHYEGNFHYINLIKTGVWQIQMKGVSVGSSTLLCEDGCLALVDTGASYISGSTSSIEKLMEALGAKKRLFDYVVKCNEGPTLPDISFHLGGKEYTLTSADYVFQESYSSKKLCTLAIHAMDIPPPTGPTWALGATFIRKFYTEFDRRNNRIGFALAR
protocol details: In vitro enzymatic activity assay of renin inhibitors (fluorescence, QXL520/HiLyteFluo488 peptide substrate)
Assay type: biochemical
stated conditions: recombinant human renin 3 nM, 1 μM substrate, pre-incubated 10 minutes at 37° C., incubation one hour, pH 7.4, 5% DMSO; read-out: IC50 of Exemplified Compounds Against Renin

CC1CN(C(=O)c2[nH]c(=O)n(C3CCCCC3)c2-c2ccccc2)CCN1 (centres unmarked)	> 1000 nM
COC(=O)c1cccc(Cn2c(C(=O)N3CCNCC3)c(-c3ccccc3)n(-c3ccccc3)c2=O)c1	> 1000 nM
O=C(c1ccco1)N1CCCC(n2c(-c3ccccc3)c(C(=O)N3CCNCC3)n(Cc3ccccc3)c2=O)C1 (centres unmarked)	> 1000 nM
O=C(NC[C@@H]1CNCCN1C(=O)c1[nH]c(=O)n(C2CCCCC2)c1-c1ccccc1)c1ccccc1	< 100 nM
Cc1ccccc1-n1c(-c2ccccc2)c(C(=O)N2CCNCC2)n(CCNS(=O)(=O)c2ccccc2F)c1=O	500 to 1000 nM

Q) Item under review: N#Cc1cccc(Cn2c(C(=O)N3CCNCC3)c(-c3ccccc3)n(-c3ccccc3)c2=O)c1 . Reported IC50?
A) 500 to 1000 nM

Q) Item under review: COCCCOc1cccc(-n2c(-c3ccccc3)c(C(=O)N3CCNCC3)n(CCNC(=O)c3ccccc3)c2=O)c1 . Reported IC50?
A) 100 to 500 nM

Q) Item under review: O=C(c1c(-c2ccccc2)n(C2CCCCC2)c(=O)n1Cc1cc(-c2cn[nH]c2)nc(-c2cn[nH]c2)c1)N1CCNCC1 . Reported IC50?
A) 100 to 500 nM

---

assay system: Recombinant human renin (Homo sapiens, UniProt P00797)
Construct: isolate the active form (residues 67-406); made in house; host or cells: FreeStyle 293-F cells, transient expression of pcDNA3.1(+)/hREN
protocol details: In vitro enzymatic activity assay of renin inhibitors (fluorescence, QXL520/HiLyteFluo488 peptide substrate)
Assay type: biochemical
stated conditions: recombinant human renin 3 nM, 1 μM substrate, pre-incubated 10 minutes at 37° C., incubation one hour, pH 7.4, 5% DMSO; read-out: IC50 of Exemplified Compounds Against Renin
readout: IC50

Q) Item under review: COc1ccc(C(=O)NCCCn2c(C(=O)N3CCNCC3)c(-c3ccccc3)n(-c3ccccc3C)c2=O)cc1 . Reported IC50?
A) > 1000 nM

Q) Item under review: Cc1ccccc1-n1c(-c2ccccc2)c(C(=O)N2CCNCC2)n(CCCNC(=O)Nc2ccccc2Cl)c1=O . Reported IC50?
A) 100 to 500 nM

Q) Item under review: Cc1ccccc1-n1c(-c2ccccc2)c(C(=O)N2CCNCC2)n(CCCNC(=O)c2ccccc2F)c1=O . Reported IC50?
A) > 1000 nM

Q) Item under review: O=C(O)COc1cccc(Cn2c(C(=O)N3CCNCC3)c(-c3ccccc3)n(-c3cccc(N4CCOCC4)c3)c2=O)c1 . Reported IC50?
A) > 1000 nM

---

Collected IC50 values appear next to each entry.
assay system: Recombinant human renin (Homo sapiens)
Construct: isolate the active form (residues 67-406); made in house; host or cells: FreeStyle 293-F cells, transient expression of pcDNA3.1(+)/hREN
Sequence (P00797 67-406): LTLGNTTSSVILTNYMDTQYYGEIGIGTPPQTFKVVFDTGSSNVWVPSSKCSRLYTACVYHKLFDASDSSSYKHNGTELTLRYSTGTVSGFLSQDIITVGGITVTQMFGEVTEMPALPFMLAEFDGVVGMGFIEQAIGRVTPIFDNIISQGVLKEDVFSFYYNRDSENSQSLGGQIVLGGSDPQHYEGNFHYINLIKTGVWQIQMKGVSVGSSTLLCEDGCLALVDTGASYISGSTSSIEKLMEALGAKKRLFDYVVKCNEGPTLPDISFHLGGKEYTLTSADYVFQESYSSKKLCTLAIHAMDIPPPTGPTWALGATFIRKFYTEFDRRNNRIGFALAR
protocol details: In vitro enzymatic activity assay of renin inhibitors (fluorescence, QXL520/HiLyteFluo488 peptide substrate)
Assay type: biochemical
stated conditions: recombinant human renin 3 nM, 1 μM substrate, pre-incubated 10 minutes at 37° C., incubation one hour, pH 7.4, 5% DMSO; read-out: IC50 of Exemplified Compounds Against Renin

Past entries and their recorded results:
CC(=O)Nc1ccccc1-n1c(-c2ccccc2)c(C(=O)N2CCNC[C@H]2Cc2ccccc2)[nH]c1=O	< 0.1 µM
Cc1ccccc1-n1c(-c2ccccc2)c(C(=O)N2CCNCC2)n(CCNS(=O)(=O)c2ccccc2C)c1=O	0.5 to 1 µM
Cc1ccccc1-n1c(-c2ccccc2)c(C(=O)N2CCNCC2)n(CCCNS(=O)(=O)c2cccc(Cl)c2)c1=O	0.1 to 0.5 µM

# evaluate next
Q) Item under review: COCCCOc1cccc(-n2c(-c3ccccc3)c(C(=O)N3CCNCC3)n(Cc3cccc(Oc4ccccc4)c3)c2=O)c1 [Example 13] . Reported IC50?
A) > 1 µM
